Molecular target: human TrkA (Homo sapiens, UniProt P04629)
Construct: purchased Lifetechnologies PV3144
Sequence (P04629 33-796): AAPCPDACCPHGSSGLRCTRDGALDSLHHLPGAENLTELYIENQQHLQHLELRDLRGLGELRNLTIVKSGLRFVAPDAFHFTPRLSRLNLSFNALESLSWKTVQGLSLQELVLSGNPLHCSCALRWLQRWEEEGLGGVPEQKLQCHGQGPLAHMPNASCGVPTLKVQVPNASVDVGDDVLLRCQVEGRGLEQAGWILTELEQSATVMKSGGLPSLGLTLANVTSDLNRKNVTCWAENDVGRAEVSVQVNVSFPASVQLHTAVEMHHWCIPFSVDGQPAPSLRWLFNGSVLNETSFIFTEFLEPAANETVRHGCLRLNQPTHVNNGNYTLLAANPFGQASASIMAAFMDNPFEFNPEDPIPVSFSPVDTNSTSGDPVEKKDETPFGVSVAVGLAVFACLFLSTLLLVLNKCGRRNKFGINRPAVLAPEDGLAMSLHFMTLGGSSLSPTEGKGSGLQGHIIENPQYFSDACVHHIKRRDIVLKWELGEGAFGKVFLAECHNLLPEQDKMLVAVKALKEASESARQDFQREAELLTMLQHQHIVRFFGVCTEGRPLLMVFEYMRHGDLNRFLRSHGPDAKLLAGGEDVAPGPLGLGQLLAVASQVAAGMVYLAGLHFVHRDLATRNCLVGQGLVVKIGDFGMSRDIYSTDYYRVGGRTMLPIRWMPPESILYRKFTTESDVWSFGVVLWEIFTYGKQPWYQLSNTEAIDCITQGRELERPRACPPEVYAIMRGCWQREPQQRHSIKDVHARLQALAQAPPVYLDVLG
Assay: Test Example 2-2: Human TrkA Inhibition Assay
Format: biochemical
Conditions: human TrkA 1 nmol/L, 120 min at 37° C., read-out: TrkA inhibition IC50
Procedure: Seven point five μL per well of human TrkA (PV3144, Lifetechnologies, final concentration: 1 nmol/L) suspended in the assay buffer (100 mmol/L 4-(2-hydroxyethyl)-1-piperazineethanesulfonic acid (HEPES), 10 mmol/L magnesium chloride, 0.003 vol % Brij-35, 0.004 vol % Tween20 and 1 mmol/L dithiothreitol (DTT)) was applied in a 384 well plate and the plate was pre-incubated for 15 min at room temperature with 0.4 μL of each compound (final concentration: 200 mmol/L-0.1 nmol/L) dissolved in DMSO. […]
Measured IC50, listed per entry.
Write down the value, and be sure its unit follows.

Solved cases below.
1. COCC[C@@H]1C[C@@H](NC(=O)Nc2c(C)c(-c3cnc(C)nc3)nn2-c2ccccc2)[C@H](c2ccc(F)c(F)c2)C1 ... 0.73 nM
2. COCC[C@@H]1C[C@@H](NC(=O)Nc2c(C)c(-c3cnc(C)nc3)nn2-c2ccccc2)[C@H](c2ccc(F)c(F)c2)N1C ... 1.1 nM

INPUT: Give IC50 (human TrkA (Homo sapiens, UniProt P04629)) of the following molecule: Cc1c(-c2cnn(C)c2)nn(-c2ccccc2)c1NC(=O)N[C@@H]1CN(CCOCC(F)(F)F)C[C@H]1c1ccc(F)c(F)c1
OUTPUT: 170 nM

INPUT: Notebook entry, human TrkA (Homo sapiens, UniProt P04629) assay: IC50 of COCC(CO)[C@@H]1C[C@@H](NC(=O)Nc2c(C)c(-c3cnn(C)c3)nn2-c2ccccc2)[C@H](c2ccccc2)C1 (stereo partly shown) = ?
OUTPUT: 76 nM

INPUT: IC50 of CC=C1C[C@@H](NC(=O)Nc2c(C)c(-c3cnn(C)c3)nn2-c2ccccc2)[C@H](c2ccccc2)C1 on human TrkA (Homo sapiens, UniProt P04629)?
OUTPUT: 21 nM

INPUT: Record COCCN1C[C@@H](NC(=O)Cc2c(C)c(-c3cnn(C)c3)nn2-c2ccccc2)[C@H](c2ccc(F)c(F)c2)C1 : what is its IC50 with human TrkA (Homo sapiens, UniProt P04629)?
OUTPUT: 71 nM

INPUT: Record lookup: for human TrkA (Homo sapiens, UniProt P04629), what IC50 belongs to Cc1c(-c2cnn(C)c2)nn(-c2ccccc2)c1NC(=O)N[C@@H]1CN(CCOC(F)F)C[C@H]1c1ccccc1 (racemic) ?
OUTPUT: 18 nM

INPUT: Test system human TrkA (Homo sapiens, UniProt P04629); read-out IC50; what value for COCCN1C[C@@H](OC(=O)Nc2c(C)c(-c3cnn(C)c3)nn2-c2ccccc2)[C@H](c2ccc(F)c(F)c2)C1 (racemic) ?
OUTPUT: 120 nM

INPUT: For human TrkA (Homo sapiens, UniProt P04629), provide IC50 of COCC[C@@H]1C[C@@H](NC(=O)Nc2c(C)c(-c3cnc(CO)nc3)nn2-c2ccccc2)[C@H](c2ccccc2)C1 please.
OUTPUT: 1.3 nM

INPUT: For the record COCC[C@@H]1C[C@@H](NC(=O)Nc2c(C)c(-c3cnn(C)c3)nn2-c2ccccc2)[C@H](c2ccccc2)[C@H]1C , what value of IC50 is listed for human TrkA (Homo sapiens, UniProt P04629)?
OUTPUT: 0.9 nM

INPUT: Field: IC50 (human TrkA (Homo sapiens, UniProt P04629)). Entry: COCC[C@@H]1C[C@@H](NC(=O)Nc2c(C)c(C3=CCN(C(C)=O)CC3)nn2-c2ccccc2)[C@H](c2ccccc2)C1
OUTPUT: 0.67 nM

INPUT: Form field - read-out: IC50; system: human TrkA (Homo sapiens, UniProt P04629); submitted item: COCC[C@@H]1C[C@@H](NC(=O)Nc2c(C)c(-c3cnn(C)c3)nn2-c2ccccc2)[C@H](c2ccnc(F)c2)C1
OUTPUT: 4.8 nM

INPUT: Enter reported IC50 observed with human TrkA (Homo sapiens, UniProt P04629) for Cc1c(-c2cnn(C)c2)nn(-c2ccccc2)c1NC(=O)N[C@@H]1CN(CCOC2CC2)C[C@H]1c1ccnc(F)c1 (racemic)
OUTPUT: 24 nM

INPUT: I'm curious: which IC50 was measured for COCCN1C[C@@H](NC(=O)Nc2c(C)c(-c3cnn(C)c3)nn2-c2ccccc2)[C@](C)(c2ccccc2)C1 (racemic) tested on human TrkA (Homo sapiens, UniProt P04629)?
OUTPUT: 410 nM

INPUT: Look up IC50 with human TrkA (Homo sapiens, UniProt P04629) for this molecule: COCCC1C[C@@H](NC(=O)Nc2c(C)c(-c3cnn(C)c3)nn2-c2ccccc2)[C@H](c2ccc(F)c(F)c2)N1C (stereo partly shown)
OUTPUT: 5.4 nM

INPUT: Request: IC50, test system human TrkA (Homo sapiens, UniProt P04629), entry COCCN1C[C@@H](NC(=O)Nc2c(C)c(-c3cnn(C)c3)nn2-c2ccccc2)[C@H](c2cccc(O)c2)C1 (racemic)
OUTPUT: 160 nM

INPUT: Record COCCC1C[C@@H](NC(=O)Nc2c3c(nn2-c2ccccc2)CCC3)[C@H](c2ccccc2)C1 (stereo partly shown) : what is its IC50 with human TrkA (Homo sapiens, UniProt P04629)?
OUTPUT: 47 nM

INPUT: Provide value of IC50 for this record tested with human TrkA (Homo sapiens, UniProt P04629): Cc1c(-c2cnn(C)c2)nn(-c2ccccc2)c1NC(=O)N[C@@H]1CN(Cc2ccc(Cl)o2)C[C@H]1c1ccc(F)c(F)c1
OUTPUT: 0.71 nM

INPUT: Please provide the recorded IC50 for COCCC1C[C@@H](NC(=O)Nc2c(C)c(-c3cnn(C)c3)nn2-c2ccccc2)[C@H](c2ccc(F)c(F)c2)N1 (stereo partly shown) , tested on human TrkA (Homo sapiens, UniProt P04629).
OUTPUT: 37 nM
